test system: NCI-H226 complex tumor spheroids, viability; test: Anticancer human tumor NCI-H226 cell line growth inhibition; details: second compound 0.0949 µM; first compound 3 µM; stronger effect = lower value;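 further: spheroids exposed to compound for 7 days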;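 on viability, T/C: 100% = DMSO vehicle control viability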
MEASURE NAME: viability, T/C

Find viability, T/C (NCI-H226 complex tumor spheroids, viability) for the entry O=C(c1cc(Cc2n[nH]c(=O)c3ccccc23)ccc1F)N1CCN(C(=O)C2CC2)CC1 + CC[C@@]1(O)C(=O)OCc2c1cc1n(c2=O)Cc2cc3c(CN(C)C)c(O)ccc3nc2-1
79.8%

Another molecule: Cn1ncnc1[C@H]1c2n[nH]c(=O)c3cc(F)cc(c23)N[C@@H]1c1ccc(F)cc1 + CC[C@@]1(O)C(=O)OCc2c1cc1n(c2=O)Cc2cc3c(CN(C)C)c(O)ccc3nc2-1
77.8%

Here is the next molecule: Cc1sc2c(c1C)C(c1ccc(Cl)cc1)=NC(CC(=O)Nc1ccc(O)cc1)c1nnc(C)n1-2 (centres undefined) + CC[C@@]1(O)C(=O)OCc2c1cc1n(c2=O)Cc2cc3c(CN(C)C)c(O)ccc3nc2-1
41.6%

Also, CNCc1ccc(-c2cc(-c3nc(-c4ccc(S(=O)(=O)C(C)C)cc4)cnc3N)on2)cc1 + CC[C@@]1(O)C(=O)OCc2c1cc1n(c2=O)Cc2cc3c(CN(C)C)c(O)ccc3nc2-1 please.
1.91%

---

Answer each item with its documented viability, T/C.
tested on: NCI-H226 complex tumor spheroids, viability; assay: Anticancer human tumor NCI-H226 cell line growth inhibition; settings: second compound 0.0003 µM; first compound 0.0316 µM; stronger effect = lower value;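 further: spheroids exposed to compound for 7 days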;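 on viability, T/C: 100% = DMSO vehicle control viability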
Write the answer as a number in %, unit excluded.

Consider the molecule Cc1cc(C)c(CNC(=O)c2cc(-c3ccc(CN4CCOCC4)cc3)cc3c2cnn3C2CCCC2)c(=O)[nH]1 + COc1cc2c(cc1O)CCNC21CSC2c3c(OC(C)=O)c(C)c4c(c3C(COC1=O)N1C(O)C3Cc5cc(C)c(OC)c(O)c5C(C21)N3C)OCO4 and give its measured viability, T/C.
105

Please answer likewise for CC1COCCN1c1cc(-c2ccnn2C)c2ccnc(-c3ccn[nH]3)c2n1 (configuration not stated) + COc1cc2c(cc1O)CCNC21CSC2c3c(OC(C)=O)c(C)c4c(c3C(COC1=O)N1C(O)C3Cc5cc(C)c(OC)c(O)c5C(C21)N3C)OCO4
109

---

tested on: NCI-H226 complex tumor spheroids, viability; assay: Anticancer human tumor NCI-H226 cell line growth inhibition; details: curve of first compound; second compound 0.000949 µM;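 further: spheroids exposed to compound for 7 days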
MEASURE NAME: pIC50
pIC50 (log units): -log10 of the concentration in mol/L.

Give the reported pIC50 for CC(C)n1c(=O)n(C)c2cnc3cc(F)c(-c4ccc(OCCCN5CCCCC5)nc4)cc3c21 + COc1cc2c(cc1O)CCNC21CSC2c3c(OC(C)=O)c(C)c4c(c3C(COC1=O)N1C(O)C3Cc5cc(C)c(OC)c(O)c5C(C21)N3C)OCO4 (system: NCI-H226 complex tumor spheroids, viability).
5.17

Try Cc1sc2c(c1C)C(c1ccc(Cl)cc1)=NC(CC(=O)Nc1ccc(O)cc1)c1nnc(C)n1-2 (stereo not given) + COc1cc2c(cc1O)CCNC21CSC2c3c(OC(C)=O)c(C)c4c(c3C(COC1=O)N1C(O)C3Cc5cc(C)c(OC)c(O)c5C(C21)N3C)OCO4 next.
6.59

Now the same for CNCc1ccc(-c2cc(-c3nc(-c4ccc(S(=O)(=O)C(C)C)cc4)cnc3N)on2)cc1 + COc1cc2c(cc1O)CCNC21CSC2c3c(OC(C)=O)c(C)c4c(c3C(COC1=O)N1C(O)C3Cc5cc(C)c(OC)c(O)c5C(C21)N3C)OCO4
5.99

Another molecule to check: COc1ccc([C@@H](O)c2cc(-c3ncnc4cc(N5CCOCC5)ccc34)c(F)cc2Cl)nn1 + COc1cc2c(cc1O)CCNC21CSC2c3c(OC(C)=O)c(C)c4c(c3C(COC1=O)N1C(O)C3Cc5cc(C)c(OC)c(O)c5C(C21)N3C)OCO4
6.12

Let us now turn to CC1COCCN1c1cc(-c2ccnn2C)c2ccnc(-c3ccn[nH]3)c2n1 (stereo not given) + COc1cc2c(cc1O)CCNC21CSC2c3c(OC(C)=O)c(C)c4c(c3C(COC1=O)N1C(O)C3Cc5cc(C)c(OC)c(O)c5C(C21)N3C)OCO4
5.44
